Target: Cytochrome P450 3A4 (Homo sapiens) (UniProt P08684)
Sequence (P08684 whole entry, looked up): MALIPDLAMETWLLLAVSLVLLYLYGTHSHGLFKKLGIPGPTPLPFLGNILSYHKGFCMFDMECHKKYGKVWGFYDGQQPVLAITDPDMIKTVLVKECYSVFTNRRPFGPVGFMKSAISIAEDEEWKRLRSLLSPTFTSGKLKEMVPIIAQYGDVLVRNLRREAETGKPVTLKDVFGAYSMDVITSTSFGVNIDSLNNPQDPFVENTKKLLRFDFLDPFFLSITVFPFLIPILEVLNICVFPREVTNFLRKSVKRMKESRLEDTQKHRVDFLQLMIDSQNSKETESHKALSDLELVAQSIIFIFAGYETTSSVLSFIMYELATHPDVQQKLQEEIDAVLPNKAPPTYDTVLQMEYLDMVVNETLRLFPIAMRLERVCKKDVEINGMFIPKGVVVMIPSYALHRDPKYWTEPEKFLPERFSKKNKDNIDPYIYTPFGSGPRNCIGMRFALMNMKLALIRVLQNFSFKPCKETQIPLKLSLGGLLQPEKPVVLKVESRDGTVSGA
Test: Cytochrome P450 Family 3 Subfamily A Member 4 (CYP3A4) small molecule antagonists: luciferase reporter qHTS assay (AID 1671201); further: nearly all actives have a fitted effect of over 50% in size
Details: P450-Glo CYP3A4 enzyme, luciferin luminescence, 1 h; series mostly up to 115 µM
Records with an inconclusive call do not appear. Activity calls are given as the source filed them. The call rests on the fitted dose curve; in most records, active means well fitted inhibition curve with a large enough effect in the repeat runs; inconclusive means weak or mixed curves; inactive means no such curve, though single readings can be large or run the other way.
Outcomes: active, inactive

Molecule: CCn1cc[n+](C)c1 (tested in a mixture with another compound)
Cat: inactive
--
Molecule: CC1(C)[C@H](/C=C2\CCSC2=O)[C@@H]1C(=O)OCc1coc(Cc2ccccc2)c1
Cat: active
--
Molecule: COP(=O)(OC)O/C(=C\Cl)c1cc(Cl)c(Cl)cc1Cl
Cat: inactive
--
Molecule: COc1c2c(cc3c1OCO3)CCN(C)C2
Cat: inactive
--
Molecule: CCOP(=S)(NC(C)C)Oc1ccccc1C(=O)OC(C)C (stereo not drawn)
Cat: active
--
Molecule: CNN
Cat: inactive
--
Molecule: CSC(=O)c1c(C(F)F)nc(C(F)(F)F)c(C(=O)SC)c1CC(C)C
Cat: active
--
Molecule: Clc1ccc(C(c2ccc(Cl)cc2)C(Cl)Cl)cc1
Cat: inactive
--
Molecule: O=C1C(Cl)=C(Cl)C(=O)C(Cl)=C1Cl
Cat: active
--
Molecule: CCCCC/C=C\C/C=C\C/C=C\C/C=C\CCCC(=O)NCC(=O)O
Cat: inactive
--
Molecule: ClC(Cl)C(Cl)(Cl)Cl
Cat: inactive
--
Molecule: Oc1cc(Cl)c(Cl)c(Cl)c1Cl
Cat: inactive
--
Molecule: NC(=O)C(Cl)Cl
Cat: inactive
--
Molecule: Oc1ccc([C@H]2CNCc3c2ccc(O)c3O)cc1O
Cat: inactive
--
Molecule: O=[N+]([O-])c1ccc(CCl)cc1
Cat: inactive
--
Molecule: Nc1nc(N)c(N)c(N)n1
Cat: inactive
--
Molecule: CC(=O)C(Cl)C(=O)N(C)C (stereo not drawn)
Cat: inactive
--
Molecule: CCOP(=O)(OCC)Oc1cc(C)nc(C(C)C)n1
Cat: inactive
--
Molecule: O=S(=O)(O)F
Cat: inactive
--
Molecule: N#Cc1c2ccccc2cc2ccccc12
Cat: inactive
--
Molecule: Oc1cccc(Cl)c1Cl
Cat: inactive
--
Molecule: CCC[CH2][Sn]([CH2]CCC)([O]C(C)=O)[O]C(C)=O
Cat: inactive
--
Molecule: CC(C)=CC1C(C(=O)OC(C#N)c2cccc(Oc3ccccc3)c2)C1(C)C (stereo not drawn)
Cat: inactive
--
Molecule: Cc1cnc2c(C(=O)O)c(Cl)ccc2c1
Cat: inactive
--
Molecule: NC1CCC(CC2CCC(N)CC2)CC1 (stereo not drawn)
Cat: active
--
Molecule: Clc1cc(Cl)c(-c2cc(Cl)c(Cl)cc2Cl)cc1Cl
Cat: inactive
--
Molecule: C=CC(=C)C
Cat: inactive
--
Molecule: CC(C)NCC(O)c1ccccc1Cl (stereo not drawn)
Cat: inactive

###

Molecular target: Estrogen receptor (Homo sapiens) (UniProt P03372)
Sequence (P03372 whole entry, looked up): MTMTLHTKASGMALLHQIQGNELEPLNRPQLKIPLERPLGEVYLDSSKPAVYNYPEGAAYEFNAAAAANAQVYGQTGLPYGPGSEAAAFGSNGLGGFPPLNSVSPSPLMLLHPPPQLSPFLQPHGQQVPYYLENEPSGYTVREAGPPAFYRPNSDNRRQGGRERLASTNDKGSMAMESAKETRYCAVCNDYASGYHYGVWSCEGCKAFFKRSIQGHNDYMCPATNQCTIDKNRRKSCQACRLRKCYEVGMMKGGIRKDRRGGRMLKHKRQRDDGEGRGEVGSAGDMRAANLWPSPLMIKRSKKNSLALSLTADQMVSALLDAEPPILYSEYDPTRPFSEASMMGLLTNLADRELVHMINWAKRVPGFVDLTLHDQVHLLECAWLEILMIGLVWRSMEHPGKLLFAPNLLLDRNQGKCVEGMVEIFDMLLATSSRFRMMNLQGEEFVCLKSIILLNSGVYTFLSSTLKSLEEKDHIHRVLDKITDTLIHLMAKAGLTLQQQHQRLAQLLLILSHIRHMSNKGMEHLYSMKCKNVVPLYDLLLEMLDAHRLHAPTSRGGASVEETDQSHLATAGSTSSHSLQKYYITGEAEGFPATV
Assay: qHTS assay to identify small molecule agonists of the estrogen receptor alpha (ER-alpha) signaling pathway (AID 743075);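 further: HEK293 GripTite cells with ER-alpha and UAS-driven beta-lactamase reporter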
Settings: HEK293 ER-alpha-UAS-bla, beta-lactamase FRET ratio, 18 h; series mostly up to 70.1 µM
Active and inactive are the calls of the source. Calls follow the shape of the full dose curve.
Possible outcomes: 1 (active), -1 (inactive)

Compound: CCC1(CC)C(=O)N=C(O)NC1=O
Cat: -1
--
Compound: ClSC(Cl)(Cl)Cl
Cat: -1
--
Compound: O=NN(CCO)CCO
Cat: -1
--
Compound: C=CCBr
Cat: -1
--
Compound: CNC(=O)/C=C(\C)OP(=O)(OC)OC
Cat: -1
--
Compound: O=C1C(Cl)=C(Cl)C(=O)C(Cl)=C1Cl
Cat: 1
--
Compound: Nc1ccccc1-c1ccccc1
Cat: -1
--
Compound: CC(C)N(C(=O)CCl)c1ccccc1
Cat: -1
--
Compound: ClC1=C(Cl)[C@]2(Cl)[C@H]3[C@H]([C@@H]4C=C[C@H]3C4)[C@@]1(Cl)C2(Cl)Cl
Cat: -1
--
Compound: CN1[C@@H]2CC[C@H]1CC(O)C2 (some centres undefined)
Cat: -1
--
Compound: Cc1ccccc1OP(=O)(Oc1ccccc1C)Oc1ccccc1C
Cat: -1
--
Compound: Nc1nc(N)nc(Cl)n1
Cat: -1
--
Compound: CC(C)(C)c1ccc(OP(=O)(Oc2ccccc2)Oc2ccccc2)cc1
Cat: -1
--
Compound: N#Cc1ccc(N(CC(N)=O)CC(F)(F)F)cc1C(F)(F)F
Cat: -1
--
Compound: CC(C)Br
Cat: -1
--
Compound: CC(Cc1ccc2c(c1)OCO2)NO (centres undefined)
Cat: -1
--
Compound: CN(C)c1ccc(N)cc1
Cat: -1
--
Compound: COP(=S)(NC(C)C)Oc1ccc(C)cc1[N+](=O)[O-] (centres undefined)
Cat: 1
--
Compound: c1cc[n+]2c(c1)-c1cccc[n+]1CC2
Cat: -1
--
Compound: COP(=O)(OC)Oc1ccc([N+](=O)[O-])cc1
Cat: -1
--
Compound: CCOP(=O)(Sc1ccccc1)Sc1ccccc1
Cat: -1
--
Compound: Cc1cc(C2CC2)nc(Nc2ccccc2)n1
Cat: -1
--
Compound: CNC(=O)CSP(=O)(OC)OC
Cat: -1
--
Compound: CCOC(=O)Cc1ccccc1
Cat: -1
--
Compound: ClC1(Cl)C2(Cl)C3(Cl)C4(Cl)C(Cl)(Cl)C5(Cl)C3(Cl)C1(Cl)C5(Cl)C24Cl (centres undefined)
Cat: -1
--
Compound: CNC(=O)Oc1cc(C)cc(C(C)C)c1
Cat: -1
--
Compound: CSC(C)(C)/C=N/O
Cat: -1
--
Compound: CCCCN(CCCC)C(=S)S
Cat: -1
--
Compound: O=c1c2ccccc2c(=O)c2c1cc(Cl)c1[nH]c3c([nH]c12)c(Cl)cc1c(=O)c2ccccc2c(=O)c13
Cat: -1
